The reported numbers originate from ChEMBL document CHEMBL4052632.

Provide the reported IC50 of each item.
molecular target: Glycogen synthase kinase-3 beta (Homo sapiens); assay: biochemical
Sequence (P49841 whole entry): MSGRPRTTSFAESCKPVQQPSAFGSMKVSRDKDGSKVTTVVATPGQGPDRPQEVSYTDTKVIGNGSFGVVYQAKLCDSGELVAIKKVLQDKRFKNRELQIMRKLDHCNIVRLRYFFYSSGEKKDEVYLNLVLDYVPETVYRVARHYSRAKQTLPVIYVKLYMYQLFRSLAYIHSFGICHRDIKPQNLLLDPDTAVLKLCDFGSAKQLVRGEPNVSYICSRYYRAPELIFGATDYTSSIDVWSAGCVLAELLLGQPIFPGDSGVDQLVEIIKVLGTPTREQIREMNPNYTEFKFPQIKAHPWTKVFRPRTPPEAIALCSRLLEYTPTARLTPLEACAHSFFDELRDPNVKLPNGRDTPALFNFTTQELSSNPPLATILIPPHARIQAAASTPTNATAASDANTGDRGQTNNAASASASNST
Description: Inhibition of recombinant N-terminal His6-tagged human GSK3beta H350L mutant expressed in baculovirus infected Sf21 insect cells using polypeptide GS-2 as substrate after 30 mins in presence of ATP by kinase-glo luminescence assay

CCCCCCCCC(=O)NC1CCN(C(=O)C2Sc3ccccc3N(CC)C2=O)CC1 (centres undefined) : > 100 µM
CCCCCCCCCCCC(=O)NNC(=O)C1Sc2ccccc2N(CC)C1=O (centres undefined) : 11.9 µM
CCN1C(=O)C(C(=O)N2CCC(NC(=O)CCCCCc3ccccc3)CC2)Sc2ccccc21 (centres undefined) : > 100 µM
CCCCCCCCCCCC(=O)N1CCN(C(=O)C2Sc3ccccc3N(CC)C2=O)CC1 (centres undefined) : 23.2 µM
CCCCCCCCCCCCCCCC(=O)N1CCC(NC(=O)C2Sc3ccccc3N(CC)C2=O)CC1 (centres undefined) : 18.6 µM
CCCCCCCCCCC(=O)N1CCC(NC(=O)C2Sc3ccccc3N(CC)C2=O)CC1 (centres undefined) : 44.3 µM
CCCCCCCCCCC(=O)N1CCN(C(=O)C2Sc3ccccc3N(CC)C2=O)CC1 (centres undefined) : 27.1 µM
CCCCCCCCCCCC(=O)N1CCC(NC(=O)C2Sc3ccccc3N(CC)C2=O)CC1 (centres undefined) : 29.7 µM
CCCCCCCCCC(=O)N1CCN(C(=O)C2Sc3ccccc3N(CC)C2=O)CC1 (centres undefined) : 51.7 µM
CCCCCCCCCCCCNC(=O)C1Sc2ccccc2N(CC)C1=O (centres undefined) : 22.9 µM

Could you tell me IC50 for each of these molecules? They are listed below.
1. CCCCCCCCCCCCCC(=O)NC1CCN(C(=O)C2Sc3ccccc3N(CC)C2=O)CC1 (centres undefined)
2. CCCCCCCCC(=O)N1CCC(NC(=O)C2Sc3ccccc3N(CC)C2=O)CC1 (centres undefined)
3. CCCCCCCCCCCC(=O)NC1CCN(C(=O)C2Sc3ccccc3N(CC)C2=O)CC1 (centres undefined)
4. CCCCCCCCCCCCCCC(=O)N1CCC(NC(=O)C2Sc3ccccc3N(CC)C2=O)CC1 (centres undefined)
5. CCCCCCCCCCC(=O)NC1CCN(C(=O)C2Sc3ccccc3N(CC)C2=O)CC1 (centres undefined)
6. CCCCCCCCCCCCCCCCC(=O)NC1CCN(C(=O)C2Sc3ccccc3N(CC)C2=O)CC1 (centres undefined)
7. CCCCCCCCCCCCCCC(=O)NC1CCN(C(=O)C2Sc3ccccc3N(CC)C2=O)CC1 (centres undefined)
8. CCCCCCCCCCCCCCCC(=O)NC1CCN(C(=O)C2Sc3ccccc3N(CC)C2=O)CC1 (centres undefined)

["33.4 µM", "> 100 µM", "33.4 µM", "17.9 µM", "45.9 µM", "46.7 µM", "22.4 µM", "11.7 µM"]

Go through the list and state IC50 for each entry.
1. CCCCCCCCC(=O)N1CCN(C(=O)C2Sc3ccccc3N(CC)C2=O)CC1 (centres undefined)
2. CCCCCCCCCC(=O)N1CCC(NC(=O)C2Sc3ccccc3N(CC)C2=O)CC1 (centres undefined)
3. CCCCCCCCCCCCCC(=O)N1CCC(NC(=O)C2Sc3ccccc3N(CC)C2=O)CC1 (centres undefined)
4. CCCCCCCCCC(=O)NC1CCN(C(=O)C2Sc3ccccc3N(CC)C2=O)CC1 (centres undefined)
5. CCCCCCCCCCCCCC(=O)N1CCN(C(=O)C2Sc3ccccc3N(CC)C2=O)CC1 (centres undefined)
6. CCCCCCCCCCCCCCCC(=O)N1CCN(C(=O)C2Sc3ccccc3N(CC)C2=O)CC1 (centres undefined)

1: > 100 µM; 2: 74.9 µM; 3: 27.3 µM; 4: 68.3 µM; 5: 18.9 µM; 6: 8.7 µM
